TESTED_ON: T1, HLA-A*02:01 (human), P04439
T1 chain: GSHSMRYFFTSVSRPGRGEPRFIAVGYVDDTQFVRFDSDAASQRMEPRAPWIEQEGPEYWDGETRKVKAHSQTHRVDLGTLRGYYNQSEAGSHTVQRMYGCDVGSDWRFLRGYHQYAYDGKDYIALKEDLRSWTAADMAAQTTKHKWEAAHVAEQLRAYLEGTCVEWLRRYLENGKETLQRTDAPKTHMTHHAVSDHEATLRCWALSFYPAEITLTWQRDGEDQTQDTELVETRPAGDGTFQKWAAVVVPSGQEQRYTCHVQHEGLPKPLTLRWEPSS
TEST_SUMMARY: HLA-binding assay
EXPERIMENTAL_CONDITIONS: chains peptide; modification not given
EXPERIMENTAL_READOUT: IC50

Query: Please indicate IC50 recorded for VLLLWITAA [HPV E5 46-54 peptide …]
Response: 11 nM
